Each record here notes measured ROS.
Tested on: reactive oxygen species
Format: cell-based, mouse
Conditions: composite Z-score vs DMSO wells; Conc 20 μM
ENDPOINT NAME: ROS

{"COMPOUND": "Oc1c(Cl)cc(Cl)cc1Sc1cc(Cl)cc(Cl)c1O [bithionol]", "RESULT": 1.449}
{"COMPOUND": "CO[C@H]1[C@H](O)[C@H](O[C@H]2CC[C@@]3(C=O)[C@H](CC[C@@H]4[C@@H]3CC[C@]3(C)[C@@H](C5=CC(=O)OC5)CC[C@]43O)C2)O[C@@H](C)[C@@H]1O [peruvoside]", "RESULT": 0.997}
{"COMPOUND": "CN(C)CCOC(=O)C(c1ccccc1)C1(O)CCCC1 (stereo not drawn) [cyclopentolate]", "RESULT": "−0.406"}
{"COMPOUND": "NS(=O)(=O)c1cc2c(cc1Cl)N=CNS2(=O)=O [chlorothiazide]", "RESULT": 1.202}
{"COMPOUND": "C=C1c2cccc(O)c2C(=O)C2=C(O)[C@]3(O)C(=O)C(C(N)=O)=C(O)[C@@H](N(C)C)[C@@H]3[C@@H](O)[C@H]12 [methacycline, reference compound]", "RESULT": 1.083}
{"COMPOUND": "CC(=O)Nc1ccc(OC(=O)c2ccccc2O)cc1 [acetaminosalol]", "RESULT": 0.308}
{"COMPOUND": "Oc1c(Cl)cc(Cl)c(Cl)c1Cc1c(O)c(Cl)cc(Cl)c1Cl [hexachlorophene]", "RESULT": "−3.378"}
{"COMPOUND": "O=c1cc(-c2ccccc2)oc2cc(O)cc(O)c12 [chrysin]", "RESULT": 0.949}
{"COMPOUND": "C[N+]1(C)CCCC(OC(=O)C(O)(c2ccccc2)c2ccccc2)C1 (stereo not drawn) [mepenzolate]", "RESULT": 0.368}

---

Tested on: cytochrome c
Type: cell-based, mouse
Details: 20 μM; composite Z-score vs DMSO
Threshold -0.2: cyt c strictly smaller gives fulfilled, otherwise not fulfilled.

{"MOLECULE": "Nc1ccc(C(=O)[O-])cc1.[K+] [potassium p-aminobenzoate]", "TESTED TARGET": "cytochrome c", "ASSIGNED LABEL": "not fulfilled"}
{"MOLECULE": "COC1=C[C@@H](C)[C@@H]2C[C@H]3OC(=O)C[C@H]4C(C)=C(OC)C(=O)[C@H]([C@@]2(C)C1=O)[C@@]34C [quassin, reference compound]", "TESTED TARGET": "cytochrome c", "ASSIGNED LABEL": "fulfilled"}
{"MOLECULE": "CCN(CC)CCNC(=O)c1cc(S(C)(=O)=O)ccc1OC [tiapride]", "TESTED TARGET": "cytochrome c", "ASSIGNED LABEL": "not fulfilled"}
{"MOLECULE": "CCCCC(CC)CNC(=N)NC(=N)NCCCCCCNC(=N)NC(=N)NCC(CC)CCCC (centres unmarked) [alexidine]", "TESTED TARGET": "cytochrome c", "ASSIGNED LABEL": "fulfilled"}
{"MOLECULE": "C[N+]12CCC(CC1)C(OC(=O)C(O)(c1ccccc1)c1ccccc1)C2 (centres unmarked) [clidinium]", "TESTED TARGET": "cytochrome c", "ASSIGNED LABEL": "not fulfilled"}

---

Tested on: OXPHOS gene expression
Format: cell-based, mouse
Conditions: primary screen, in words
Counter-ions that a name gives are not always drawn.
ENDPOINT NAME: OXPHOS expression

{"MOLECULE": "CC(=O)O[C@H]1C(=O)[C@@]2(C)[C@H]([C@H](OC(=O)c3ccccc3)[C@]3(O)C[C@H](OC(=O)[C@H](O)[C@@H](NC(=O)c4ccccc4)c4ccccc4)C(C)=C1C3(C)C)[C@]1(OC(C)=O)CO[C@@H]1C[C@@H]2O [paclitaxel, reference compound]", "RESULT": "boost OXPHOS expression"}
{"MOLECULE": "CC[C@]1(O)C[C@@H]2CN(CCc3c([nH]c4ccccc34)[C@@](C(=O)OC)(c3cc4c(cc3OC)N(C)[C@H]3[C@@](O)(C(=O)OC)[C@H](OC(C)=O)[C@]5(CC)C=CCN6CC[C@]43[C@@H]65)C2)C1 [vinblastine sulfate, reference compound]", "RESULT": "boost OXPHOS expression"}
{"MOLECULE": "COc1cc([C@@H]2c3cc4c(cc3[C@H](O)[C@H]3COC(=O)[C@H]23)OCO4)cc(OC)c1OC [podofilox, reference compound]", "RESULT": "boost OXPHOS expression"}

---

Test system: cytochrome c
Assay type: cell-based, mouse
Conditions: composite Z-score vs DMSO wells; Conc 20 μM
ENDPOINT NAME: cyt c

{"COMPOUND": "NCCCC(=O)O", "ENDPOINT NAME": "cyt c", "NUMERIC READOUT": "−0.038"}
{"COMPOUND": "CCOc1ccc(NC(C)=O)cc1", "ENDPOINT NAME": "cyt c", "NUMERIC READOUT": 0.005}
{"COMPOUND": "CC[C@@]1(O)C[C@H](O[C@H]2C[C@H](N(C)C)[C@H](O)[C@H](C)O2)c2c(cc3c(c2O)C(=O)c2c(O)cccc2C3=O)[C@H]1C(=O)OC", "ENDPOINT NAME": "cyt c", "NUMERIC READOUT": "−5.658"}
{"COMPOUND": "Oc1c(Cl)cc(Cl)c2cccnc12", "ENDPOINT NAME": "cyt c", "NUMERIC READOUT": "−0.800"}
{"COMPOUND": "CC(=O)O[C@H](CC(=O)[O-])C[N+](C)(C)C", "ENDPOINT NAME": "cyt c", "NUMERIC READOUT": "−0.192"}
{"COMPOUND": "CCOC(=O)CCCCCCCCCCCCC1C=CCC1 (stereo not drawn)", "ENDPOINT NAME": "cyt c", "NUMERIC READOUT": 0.617}

---

Test system: cellular dehydrogenase activity
Settings: composite Z-score vs DMSO wells; Conc 20 μM
Strictly below -1 in MTT: class 1. Otherwise: class 0.

{"COMPOUND": "Oc1cc(O)c2c(c1)O[C@H](c1ccc(O)c(O)c1)[C@@H](O)C2 [cianidanol, reference compound]", "ASSIGNED LABEL": "class 1"}
{"COMPOUND": "CCOC(=O)[N-]c1cn(N2CCOCC2)n[o+]1", "ASSIGNED LABEL": "class 0"}
{"COMPOUND": "O=c1[nH]c(=O)n([C@H]2C[C@H](O)[C@@H](CO)O2)cc1F", "ASSIGNED LABEL": "class 1"}
{"COMPOUND": "CC[N+](CC)(CC)CCOc1cccc(OCC[N+](CC)(CC)CC)c1OCC[N+](CC)(CC)CC", "ASSIGNED LABEL": "class 1"}
{"COMPOUND": "CC(C)NCC(O)c1cc(O)cc(O)c1 (stereo not shown)", "ASSIGNED LABEL": "class 0"}
{"COMPOUND": "CC(=O)N[C@H]1[C@H]([C@@H](O)[C@@H](O)CO)O[C@@](O)(C(=O)O)C[C@@H]1O", "ASSIGNED LABEL": "class 0"}
{"COMPOUND": "C[N+](C)(C)CCCCCC[N+](C)(C)C [hexamethonium bromide]", "ASSIGNED LABEL": "class 1"}
{"COMPOUND": "CSCC[C@H](NC=O)C(=O)N[C@@H](CC(C)C)C(=O)N[C@@H](Cc1ccccc1)C(=O)O", "ASSIGNED LABEL": "class 1"}
{"COMPOUND": "CC[C@@]1(O)C[C@H](O[C@H]2C[C@H](N(C)C)[C@H](O)[C@H](C)O2)c2c(cc3c(c2O)C(=O)c2c(O)cccc2C3=O)[C@H]1C(=O)OC", "ASSIGNED LABEL": "class 1"}
{"COMPOUND": "N[C@@H](Cc1ccc(N(CCCl)CCCl)cc1)C(=O)O", "ASSIGNED LABEL": "class 1"}
{"COMPOUND": "Cc1c(N(C)CS(=O)(=O)[O-])c(=O)n(-c2ccccc2)n1C.[Na+]", "ASSIGNED LABEL": "class 1"}
{"COMPOUND": "CCCCOc1ccc(C(=O)CCN2CCCCC2)cc1", "ASSIGNED LABEL": "class 0"}
{"COMPOUND": "O=C1C(O)=C(O)C(=O)C(O)=C1O", "ASSIGNED LABEL": "class 0"}
{"COMPOUND": "CC(=O)N[C@@H](CC(C)C)C(=O)O", "ASSIGNED LABEL": "class 0"}
{"COMPOUND": "Oc1c(Cl)cc(Cl)c(Cl)c1Cc1c(O)c(Cl)cc(Cl)c1Cl", "ASSIGNED LABEL": "class 1"}
{"COMPOUND": "CC(=O)O[C@H]1C[C@H](O[C@H]2[C@@H](O)C[C@H](O[C@H]3[C@@H](O)C[C@H](O[C@H]4CC[C@@]5(C)[C@H](CC[C@@H]6[C@@H]5C[C@@H](O)[C@]5(C)[C@@H](C7=CC(=O)OC7)CC[C@]65O)C4)O[C@@H]3C)O[C@@H]2C)O[C@H](C)[C@H]1O[C@@H]1O[C@H](CO)[C@@H](O)[C@H](O)[C@H]1O [lanatoside C]", "ASSIGNED LABEL": "class 0"}
